system: OVCAR-8; experiment: NCI one-dose screening, ovarian cancer OVCAR-8; assay type: cell-based, human; details: 10 μM
OBSERVABLE: Growth Percent OVCAR-8 (%)
Report as a plain number; the unit % is understood.

In the examples that follow, each entry is paired with its recorded Growth Percent OVCAR-8.
[[record]]
smiles_repr = "O=C1c2ccccc2C(=O)c2c1cc(Sc1cccc(Cl)c1)c1nsnc21"
measurement = "−22.92"

[[record]]
smiles_repr = "O=C1c2ccccc2C(=O)c2c1cc(Sc1ccccc1Br)c1nsnc21"
measurement = 2.47

[[record]]
smiles_repr = "O=C1c2ccccc2C(=O)c2c1cc(Sc1ccc(Cl)cc1)c1nsnc21"
measurement = 88.60

[[record]]
smiles_repr = "Cc1cccc(C)c1Sc1cc2c(c3nsnc13)C(=O)c1ccccc1C2=O"
measurement = 58.98

[[record]]
smiles_repr = "O=C1c2ccccc2C(=O)c2c1cc(Nc1ccc(Cl)cc1F)c1nsnc21"
measurement = 36.77


Annotate the molecule `O=C1c2ccccc2C(=O)c2c1cc(N1CCSCC1)c1nsnc21` with its measured Growth Percent OVCAR-8.
41.72

Please report Growth Percent OVCAR-8 for the following molecule: `Cc1ccc(Sc2cc3c(c4nsnc24)C(=O)c2ccccc2C3=O)c(C)c1`
104.59

Give Growth Percent OVCAR-8 for the following molecule: `O=C1c2ccccc2C(=O)c2c1cc(Sc1ccc(F)cc1F)c1nsnc21`
0.32

Give Growth Percent OVCAR-8 for the following molecule: `O=C1c2ccccc2C(=O)c2c1cc(SCc1ccccc1)c1nsnc21`
6.01

Read off the recorded Growth Percent OVCAR-8 for `O=C1c2ccccc2C(=O)c2c1cc(Nc1ccc(Cl)cc1)c1nsnc21`
45.71

----------
system: HT29; assay: NCI one-dose screening, colon cancer HT29; type: cell-based, human; details: HT29, 10 μM
# Growth Percent (10 μM) values compiled below
The answer is to be given in %; state only the numeric part.

Guide cases for Growth Percent (10 μM), answers given:
[[record]]
molecule = "CN(C)CCNc1cc2c(c3nsnc13)C(=O)c1ccccc1C2=O [C8]"
measurement = "−45.50"

[[record]]
molecule = "CC(C)Sc1cc2c(c3nsnc13)C(=O)c1ccccc1C2=O [C18]"
measurement = 48.08

[[record]]
molecule = "Cc1ccc(Nc2cc3c(c4nsnc24)C(=O)c2ccccc2C3=O)cc1 [C64]"
measurement = 96.29


Give reported Growth Percent (10 μM) for O=C1c2ccccc2C(=O)c2c1cc(N1CCCC1)c1nsnc21 [C7] (HT29)
98.60

----------
tested on: NCl/ADR-RES; experiment: NCI one-dose screening, breast cancer NCl/ADR-RES; format: cell-based, human; settings: 10 μM; listed under Ovarian cancer
Recorded Growth Percent NCI/ADR-RES determines the group label, using 1 (below 40%), 2 (40% to below 90%), 3 (90% or more)

Solved entries (count: 4):
[[record]]
compound = "Cc1ccccc1Nc1cc2c(c3nsnc13)C(=O)c1ccccc1C2=O [C61]"
discrete_label = 1

[[record]]
compound = "O=C1c2ccccc2C(=O)c2c1cc(Sc1cccc(Cl)c1)c1nsnc21 [C37]"
discrete_label = 1

[[record]]
compound = "O=C1c2ccccc2C(=O)c2c1cc(Sc1ccccc1Br)c1nsnc21 [C27]"
discrete_label = 1

[[record]]
compound = "CCOc1cccc(Sc2cc3c(c4nsnc24)C(=O)c2ccccc2C3=O)c1 [C50]"
discrete_label = 3


Determine which band this compound sits in: O=C1c2ccccc2C(=O)c2c1cc(SCc1ccccc1)c1nsnc21 [C21]
2

# bin lookup: classify Cc1ccc(Sc2cc3c(c4nsnc24)C(=O)c2ccccc2C3=O)c(C)c1 [C25] by its Growth Percent NCI/ADR-RES
3

Band of CCSc1cc2c(c3nsnc13)C(=O)c1ccccc1C2=O [C16] ?
1

// bin(item) where item = O=C1c2ccccc2C(=O)c2c1cc(Sc1ccccn1)c1nsnc21 [C58]
1

Form field 'band' for O=C1c2ccccc2C(=O)c2c1cc(Nc1ccc(Cl)cc1)c1nsnc21 [C60]
2

Record COc1ccc(Sc2cc3c(c4nsnc24)C(=O)c2ccccc2C3=O)cc1 [C41] — which class?
3

# bin label for O=C1c2ccccc2C(=O)c2c1cc(SCc1ccc(Cl)cc1)c1nsnc21 [C56]
3

Any idea which band O=C1c2ccccc2C(=O)c2c1cc(N1CCSCC1)c1nsnc21 [C15] is in?
2

----------
system: SK-MEL-5; assay: NCI one-dose screening, melanoma SK-MEL-5; format: cell-based, human; conditions: SK-MEL-5, 10 μM
# key: entry, value: Growth Percent (10 μM)
Express the result in % but write the number alone.

Below, 3 molecules whose answers are already recorded.
[[record]]
smiles_repr = "CN(C)CCNc1cc2c(c3nsnc13)C(=O)c1ccccc1C2=O"
measurement = "−98.79"

[[record]]
smiles_repr = "CC(C)Sc1cc2c(c3nsnc13)C(=O)c1ccccc1C2=O"
measurement = "−99.20"

[[record]]
smiles_repr = "Cc1ccc(Nc2cc3c(c4nsnc24)C(=O)c2ccccc2C3=O)cc1"
measurement = 24.13


--- query ---
Find the measured Growth Percent (10 μM) of `O=C1c2ccccc2C(=O)c2c1cc(N1CCCC1)c1nsnc21` and report it.
31.12

----------
tested on: HS 578-T; experiment: NCI one-dose screening, breast cancer HS 578-T; assay type: cell-based, human; conditions: 10 μM; Breast cancer
Growth Percent HS 578T overview
Could you give me the number in %? Just the number is fine.

[[record]]
smiles_repr = "COc1cccc(Sc2cc3c(c4nsnc24)C(=O)c2ccccc2C3=O)c1"
tgt = "HS 578-T"
observable = "Growth Percent HS 578T"
unit_label = "%"
measurement = 93.84


Fill in reported Growth Percent HS 578T for this entry: `O=C1c2ccccc2C(=O)c2c1cc(Sc1ccccc1)c1nsnc21`
95.89

Retrieve Growth Percent HS 578T measured for `O=C1c2ccccc2C(=O)c2c1cc(Sc1ccc(F)cc1F)c1nsnc21` and print it.
50.08

Fill in reported Growth Percent HS 578T for this entry: `COc1ccc(Sc2cc3c(c4nsnc24)C(=O)c2ccccc2C3=O)cc1`
96.71

For the molecule `O=C1c2ccccc2C(=O)c2c1cc(Sc1ccccc1Br)c1nsnc21` , report Growth Percent HS 578T.
54.25

Answer with the recorded Growth Percent HS 578T for the molecule listed here: `O=C1c2ccccc2C(=O)c2c1cc(Sc1ccc(Cl)cc1)c1nsnc21`
103.37

----------
test system: A549/ATCC; test: NCI one-dose screening, non-small cell lung cancer A549/ATCC; format: cell-based, human; conditions: 10 μM
OBSERVABLE: Growth Percent A549/ATCC (%)
Record the value in %, omitting the unit from your answer.

Some solved cases for reference:
[[record]]
smiles_repr = "O=C1c2ccccc2C(=O)c2c1cc(Nc1ccc(Cl)cc1F)c1nsnc21"
unit_label = "%"
measurement = 69.22

[[record]]
smiles_repr = "O=C1c2ccccc2C(=O)c2c1cc(Sc1ccc(Cl)cc1)c1nsnc21"
unit_label = "%"
measurement = 103.88

[[record]]
smiles_repr = "O=C1c2ccccc2C(=O)c2c1cc(N1CCSCC1)c1nsnc21"
unit_label = "%"
measurement = 62.74

[[record]]
smiles_repr = "Cc1ccccc1Nc1cc2c(c3nsnc13)C(=O)c1ccccc1C2=O"
unit_label = "%"
measurement = 27.13

[[record]]
smiles_repr = "Cc1ccc(Sc2cc3c(c4nsnc24)C(=O)c2ccccc2C3=O)c(C)c1"
unit_label = "%"
measurement = 109.80


Lab note: next molecule to report on.
Return Growth Percent A549/ATCC for the following molecule: `O=C1c2ccccc2C(=O)c2c1cc(Sc1ccccn1)c1nsnc21`
96.53

----------
Entries annotated with measured Growth Percent SN12C
test system: SN12C; test: NCI one-dose screening, renal cancer SN12C; format: cell-based, human; details: 10 μM

[[record]]
smiles_repr = "Cc1cccc(C)c1Sc1cc2c(c3nsnc13)C(=O)c1ccccc1C2=O"
observable = "Growth Percent SN12C"
measurement = "67.67%"

[[record]]
smiles_repr = "O=C1c2ccccc2C(=O)c2c1cc(Sc1ccccc1)c1nsnc21"
observable = "Growth Percent SN12C"
measurement = "96.58%"

[[record]]
smiles_repr = "O=C1c2ccccc2C(=O)c2c1cc(Nc1ccc(Cl)cc1F)c1nsnc21"
observable = "Growth Percent SN12C"
measurement = "86.43%"

[[record]]
smiles_repr = "O=C1c2ccccc2C(=O)c2c1cc(N1CCSCC1)c1nsnc21"
observable = "Growth Percent SN12C"
measurement = "76.76%"

[[record]]
smiles_repr = "O=C1c2ccccc2C(=O)c2c1cc(N1CCOCC1)c1nsnc21"
observable = "Growth Percent SN12C"
measurement = "71.73%"

[[record]]
smiles_repr = "CCOc1cccc(Sc2cc3c(c4nsnc24)C(=O)c2ccccc2C3=O)c1"
observable = "Growth Percent SN12C"
measurement = "104.76%"

[[record]]
smiles_repr = "O=C1c2ccccc2C(=O)c2c1cc(Sc1ccc(Cl)cc1)c1nsnc21"
observable = "Growth Percent SN12C"
measurement = "86.95%"

[[record]]
smiles_repr = "COc1cccc(Sc2cc3c(c4nsnc24)C(=O)c2ccccc2C3=O)c1"
observable = "Growth Percent SN12C"
measurement = "95.93%"

[[record]]
smiles_repr = "Cc1ccc(Sc2cc3c(c4nsnc24)C(=O)c2ccccc2C3=O)c(C)c1"
observable = "Growth Percent SN12C"
measurement = "98.68%"

[[record]]
smiles_repr = "O=C1c2ccccc2C(=O)c2c1cc(SCc1ccccc1)c1nsnc21"
observable = "Growth Percent SN12C"
measurement = "66.11%"


Dear colleague, please send me the reported Growth Percent SN12C for `O=C1c2ccccc2C(=O)c2c1cc(Sc1cccc(Cl)c1)c1nsnc21` when you can.
−66.17%

Identify the reported Growth Percent SN12C for the following entry. `CSc1ccc(Sc2cc3c(c4nsnc24)C(=O)c2ccccc2C3=O)cc1`
98.04%

Supply recorded Growth Percent SN12C for `Cc1ccccc1Nc1cc2c(c3nsnc13)C(=O)c1ccccc1C2=O` here.
46.94%

Report measured Growth Percent SN12C; entry is `O=C1c2ccccc2C(=O)c2c1cc(Nc1ccc(Cl)cc1)c1nsnc21`
81.98%
